# Tested on: LDL-RD mice
# experiment: Aortic sinus lesion area after intraperitoneal immunization with incomplete Freund's adjuvant
# Assay type: in vivo
# runConditions: End, intraperitoneal with incomplete Freund's adjuvant, head 100 μg, mean ± S.E
endpointName: Aortic sinus lesion (μm^2)
Dear colleague, please return just the value in μm^2, with no unit written.

1. VCPFAGILENGAVRYTTFEY [Peptide S-1]    29968
2. SCKVPVKKATVVYQGERVKIQ [Peptide S-3]    45329
3. MLHGDKVSFFCKNKEKKCSYT [Peptide S-4]    23758

# ---- query sequence ----
Q) Aortic sinus lesion (μm^2) lookup needed for ECLPQHAMFGNDTITCTTHGN [Peptide S-2] , thanks.
A) 24050
